- MEASUREMENT_TARGET: V-ATPase (vacuolar proton translocating ATPase; catalytic subunit A) (Saccharomyces cerevisiae, UniProt P16140+P17255)
- Sequence (P17255 2-283): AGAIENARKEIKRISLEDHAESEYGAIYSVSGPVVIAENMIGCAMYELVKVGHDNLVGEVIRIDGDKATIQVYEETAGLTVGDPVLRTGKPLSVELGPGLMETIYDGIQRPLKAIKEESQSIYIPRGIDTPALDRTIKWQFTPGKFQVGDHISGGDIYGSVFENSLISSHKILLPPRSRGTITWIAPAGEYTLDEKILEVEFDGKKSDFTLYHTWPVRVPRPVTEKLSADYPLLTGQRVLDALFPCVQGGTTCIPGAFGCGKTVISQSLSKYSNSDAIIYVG
- Sequence (P17255 738-1071): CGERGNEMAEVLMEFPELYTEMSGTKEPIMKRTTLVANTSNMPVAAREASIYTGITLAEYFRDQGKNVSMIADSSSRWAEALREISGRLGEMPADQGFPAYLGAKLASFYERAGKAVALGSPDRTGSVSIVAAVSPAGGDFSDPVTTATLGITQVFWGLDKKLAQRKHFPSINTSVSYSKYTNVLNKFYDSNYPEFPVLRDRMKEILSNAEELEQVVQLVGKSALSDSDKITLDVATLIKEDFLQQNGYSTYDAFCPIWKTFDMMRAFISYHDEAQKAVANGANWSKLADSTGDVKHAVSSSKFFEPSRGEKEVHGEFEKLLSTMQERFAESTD
- Sequence (P16140 2-517): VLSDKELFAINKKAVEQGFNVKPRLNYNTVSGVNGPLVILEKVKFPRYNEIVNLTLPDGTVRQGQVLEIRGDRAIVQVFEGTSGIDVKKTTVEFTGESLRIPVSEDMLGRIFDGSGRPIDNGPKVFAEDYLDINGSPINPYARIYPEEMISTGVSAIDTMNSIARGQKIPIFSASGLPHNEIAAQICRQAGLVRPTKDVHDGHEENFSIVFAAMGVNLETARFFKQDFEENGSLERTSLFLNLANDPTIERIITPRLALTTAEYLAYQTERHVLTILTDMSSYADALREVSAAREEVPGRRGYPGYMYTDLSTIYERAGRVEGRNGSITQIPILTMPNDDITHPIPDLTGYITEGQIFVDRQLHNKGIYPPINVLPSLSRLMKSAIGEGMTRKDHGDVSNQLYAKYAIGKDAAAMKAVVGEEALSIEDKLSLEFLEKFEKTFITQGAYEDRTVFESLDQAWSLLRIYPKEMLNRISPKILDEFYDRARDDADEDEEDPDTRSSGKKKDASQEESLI
- Sequence (P25515 whole entry partner): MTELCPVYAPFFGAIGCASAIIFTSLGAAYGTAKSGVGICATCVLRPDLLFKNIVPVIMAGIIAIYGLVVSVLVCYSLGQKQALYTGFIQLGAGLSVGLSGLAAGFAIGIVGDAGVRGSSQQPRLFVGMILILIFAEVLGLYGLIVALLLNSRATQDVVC
- Sequence (P32563 2-840 partner): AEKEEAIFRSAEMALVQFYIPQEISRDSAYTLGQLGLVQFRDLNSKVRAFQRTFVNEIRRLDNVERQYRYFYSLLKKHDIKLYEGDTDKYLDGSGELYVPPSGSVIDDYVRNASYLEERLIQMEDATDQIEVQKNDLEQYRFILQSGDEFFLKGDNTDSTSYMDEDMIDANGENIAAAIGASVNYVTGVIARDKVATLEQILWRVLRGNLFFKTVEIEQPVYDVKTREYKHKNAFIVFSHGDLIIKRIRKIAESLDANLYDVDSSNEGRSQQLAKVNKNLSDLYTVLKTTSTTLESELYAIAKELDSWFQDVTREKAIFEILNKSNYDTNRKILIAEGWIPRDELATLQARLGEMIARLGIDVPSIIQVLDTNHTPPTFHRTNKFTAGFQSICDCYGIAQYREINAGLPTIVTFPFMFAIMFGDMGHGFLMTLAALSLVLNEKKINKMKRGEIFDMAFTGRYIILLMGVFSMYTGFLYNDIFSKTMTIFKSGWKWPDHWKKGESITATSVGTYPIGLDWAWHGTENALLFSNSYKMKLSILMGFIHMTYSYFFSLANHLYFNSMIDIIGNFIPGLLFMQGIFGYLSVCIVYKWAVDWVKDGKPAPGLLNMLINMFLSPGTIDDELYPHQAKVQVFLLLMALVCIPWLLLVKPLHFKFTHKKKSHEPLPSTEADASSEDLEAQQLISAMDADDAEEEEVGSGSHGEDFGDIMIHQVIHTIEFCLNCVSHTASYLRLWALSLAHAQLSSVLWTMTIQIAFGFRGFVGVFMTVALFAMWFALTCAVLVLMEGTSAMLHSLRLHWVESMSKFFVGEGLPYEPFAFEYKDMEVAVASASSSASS
- PROTOCOL_DETAILS: ATP hydrolysis
- Format: biochemical
QUANTITY_NAME: pEC50
Answers are plain numbers, as −log10 of the molar value.

Q: Could you tell me which pEC50 is on file for CCN(CC)C(=S)SSC(=S)N(CC)CC ?
A: 4.61
